experiment: recombinant barcode read abundance after kanamycin selection (control-corrected) (log10(CPM+1)); higher = more efficient recombination; sequences stand for … in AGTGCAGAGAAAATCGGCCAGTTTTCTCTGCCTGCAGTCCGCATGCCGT…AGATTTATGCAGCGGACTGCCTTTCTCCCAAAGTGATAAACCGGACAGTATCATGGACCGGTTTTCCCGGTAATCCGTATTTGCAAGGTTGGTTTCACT; site = the 11-nt target;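 also: IS621 recombinase and bridge RNA in Escherichia coli cells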
measurement_name: recombinant barcode read abundance (log10)
Kindly provide the number alone.

>>> measured_value("ACGGTCACTTGGGTTCTAACCTGTTGCCT (site ACGGTCACTAG)")
2.95
>>> measured_value("CTTCGCACTTGGGTTCTAACCTGTTGCCT (site CATCGCACTAG)")
0.0381
>>> measured_value("GTATGACCTTGGGTTCTAACCTGTTGCTT (site GTAGCACCTAA)")
0.0633
>>> measured_value("TATCCGACTTGGGTTCTAACCTGTTGCCG (site TATCCGACTGG)")
0.386
>>> measured_value("AAGTGAGCTTGGGTTCTAACCTGTTGCAG (site AAGTGAGCTCT)")
2.69
>>> measured_value("GTCCGAACTTGGGTTCTAACCTGTTGCCA (site GTCGGAGCTTG)")
0.0199
>>> measured_value("CCAAGGGCTTGGGTTCTAACCTGTTGCCG (site CCAAGGGCTCC)")
0.211
>>> measured_value("AGCTGGGCTTGGGTTCTAACCTGTTGCCT (site AACTGGGCTAG)")
0.0885
>>> measured_value("ATTTGCCCTTGGGTTCTAACCTGTTGCCT (site ATTTGCCCTAG)")
0.122
>>> measured_value("GTGGGCCCTTGGGTTCTAACCTGTTGCTG (site ATCGGCCCTCA)")
0.302

Query block: # get_value(readout='recombinant barcode read abundance (log10)', item= GTACCGCCTTGGGTTCTAACCTGTTGCCT (site GTACTGCCTAG) )
Result block: 0.29

Query block: # get_value(readout='recombinant barcode read abundance (log10)', item= ATACGGACTTGGGTTCTAACCTGTTGCTA (site ATAGGGACTTA) )
Result block: 0.186

Query block: # get_value(readout='recombinant barcode read abundance (log10)', item= TACTAAGCTTGGGTTCTAACCTGTTGCTT (site TACTAAGCTAG) )
Result block: 0.0797

Query block: # get_value(readout='recombinant barcode read abundance (log10)', item= AGGAACACTTGGGTTCTAACCTGTTGCTT (site AGGAACACTCA) )
Result block: 0.279

Origin of measurements: the supplement of paper PMC11208160
